- EXPERIMENTAL_DETAILS: Oral bioavailability in Sprague-Dawley rat at 20 mg/kg after 24 hrs by LC/MS/MS analysis
- Assay type: ADME, organism-based
- CONDITIONS_USED: in vivo

COMPOUND	bioavailability
C/C=C/C[C@@H](C)[C@@H](O)[C@H]1C(=O)N[C@@H](CC)C(=O)N(C)C(SCCN(C)C)C(=O)N(C)[C@@H](CC(C)(C)O)C(=O)N[C@@H](C(C)C)C(=O)N(C)[C@@H](CC(C)C)C(=O)N[C@@H](C)C(=O)N[C@H](C)C(=O)N(C)[C@@H](CC(C)C)C(=O)N(C)[C@@H](CC(C)C)C(=O)N(C)[C@@H](C(C)C)C(=O)N1C (single isomer, unassigned) [SCY 635]	18.9%

Cited source for all entries: ChEMBL document CHEMBL1212786
